pIC50: −log10 of the molar value.
ROCK2 (Homo sapiens (Human), UniProt O75116): reported pIC50 for various compounds.
Sequence (O75116 5-554 limits assumed): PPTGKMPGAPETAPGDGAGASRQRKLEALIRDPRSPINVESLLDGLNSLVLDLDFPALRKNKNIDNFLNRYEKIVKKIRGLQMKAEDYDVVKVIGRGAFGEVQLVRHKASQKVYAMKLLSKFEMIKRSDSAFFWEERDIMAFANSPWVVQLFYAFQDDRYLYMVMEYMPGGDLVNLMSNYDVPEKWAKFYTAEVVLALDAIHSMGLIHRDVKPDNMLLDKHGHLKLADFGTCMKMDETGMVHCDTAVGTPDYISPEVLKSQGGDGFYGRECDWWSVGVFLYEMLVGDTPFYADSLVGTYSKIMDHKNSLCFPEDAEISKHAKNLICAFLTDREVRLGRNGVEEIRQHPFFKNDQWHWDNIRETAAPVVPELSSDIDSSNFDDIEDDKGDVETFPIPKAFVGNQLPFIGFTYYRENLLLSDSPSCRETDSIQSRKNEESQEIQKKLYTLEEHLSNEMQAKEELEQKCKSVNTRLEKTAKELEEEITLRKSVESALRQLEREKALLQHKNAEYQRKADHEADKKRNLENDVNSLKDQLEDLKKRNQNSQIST

| compound | observed-value |
| --- | --- |
| CC(C)NC(=O)COc1cccc(-c2nc(Nc3ccc4[nH]ncc4c3)cc(C(F)(F)F)n2)c1 [Example 169] | < 5.00 |

Now consider a different compound.
Sample CC(N)c1cccc(-c2nccc(Nc3ccc4[nH]ncc4c3)n2)c1 (centres unmarked) [Example 147] — what was its pIC50? < 5.26
